- procedure.details: Nuclear factor erythroid 2-related factor 2/antioxidant responsive element (Nrf2/ARE) small molecule agonists: qHTS cell viability counter screen in human keratinocytes (AID 1919968); further: on the % scale 0 is the no-effect control and ±100 the full control effect; nearly all actives have a fitted effect of over 55% in size
- reported.conditions: KeratinoSens HaCaT ARE cells viability, CellTiter-Fluor, 24 h; series mostly up to 92.4 µM
Inconclusive results are not listed. Active and inactive are the calls of the source. The call rests on the fitted dose curve; in most records, active means well fitted cell-killing curve with a large enough effect in the repeat runs; inconclusive means weak or mixed curves, or effect the other way; inactive means flat fitted curve, though single readings scatter.
Please state which outcome applies, choosing from label 1 for active, label 0 for inactive

Dear all, I need the recorded test outcome for CCCCCCn1c(=O)c2c(ncn2C)n(C)c1=O , thank you.
label 0

* * *

- experimental.system: D(2) dopamine receptor (Homo sapiens)
- procedure.details: Dopamine D2 receptor (DRD2) small molecule agonists, cell-based qHTS assay (AID 1963594); further: on the % scale 0 is the no-effect control and ±100 the full control effect; nearly all actives have a fitted effect of over 35% in size
- reported.conditions: HEK293-DRD2 cAMP HTRF, agonist mode, 30 min; series mostly up to 92.4 µM
Results filed as inconclusive are left out. Activity calls are given as the source filed them. Calls follow the shape of the full dose curve.
result.type: activation

Study these solved cases before continuing.
compound	activation
CCCCCCCCCC#N	inactive
Nc1ccc(C(=O)NCC(=O)O)cc1	inactive
CCN1CN(CC)CN(CC)C1	inactive
CC(C)=CC(=O)O	inactive
C1COC(NC(C2CC2)C2CC2)=N1	inactive

Please fill in: activation reported for Clc1ccc(C(Cn2ccnc2)OCc2c(Cl)cccc2Cl)c(Cl)c1 (stereo not drawn) = inactive

Please fill in: activation reported for COc1ccc(C(=O)Nc2nc3ccccc3c(NCc3ccccc3)c2C#N)cc1 = inactive

Please fill in: activation reported for COc1ccc(-n2nc(C(F)F)cc2-c2ccc(S(C)=O)cc2)cc1 (stereo not drawn) = inactive

Please fill in: activation reported for CCCCCCCCCCCCCC=O = 1.32% [at 8.39 µM] (inactive)

Please fill in: activation reported for C/C(=N/NC(=O)c1ccncc1)C(=O)O = inactive

Please fill in: activation reported for CC(=O)SC[C@@H](Cc1ccccc1)C(=O)NCC(=O)OCc1ccccc1 = inactive

Please fill in: activation reported for CC(C)=CCC[C@@](C)(O)[C@H]1CC=C(C)CC1 = inactive

Please fill in: activation reported for CCCCCCCCCCCCS(=O)(=O)Cl = 0.808% [at 19 µM] (inactive)

Please fill in: activation reported for Nc1nc(N)c(-c2ccccc2)s1 = inactive

Please fill in: activation reported for COC(=O)C1CC(=O)C(C(=O)OC)CC1=O (stereo not drawn) = -0.218% [at 8.39 µM] (inactive)

Please fill in: activation reported for CCCCC/C=C/CC(=O)OC = inactive

Please fill in: activation reported for NCC(=O)O = 4.26% [at 19 µM] (inactive)

Please fill in: activation reported for CCOC(=O)c1ccccc1 = inactive

* * *

- procedure.details: p53 small molecule agonists, cell-based qHTS assay (AID 1963582); further: on the % scale 0 is the no-effect control and ±100 the full control effect
- reported.conditions: HCT-116 p53RE-bla reporter, beta-lactamase FRET ratio, 16 h; series mostly up to 66 µM
Records with an inconclusive call do not appear. Activity calls are given as the source filed them. Calls follow the shape of the dose curve; as a rule, active = well fitted activation curve with a large enough effect in the signal ratio in the repeat runs (not every such curve was filed as active); inconclusive = weak or mixed curves; inactive = flat fitted curve, though single readings scatter; the % refers to the signal ratio.
result.type: activation

compound	result
Cc1cccn2c(=O)c(-c3nnn[nH]3)cnc12	1.33% [at 13.5 µM] (inactive)
Cc1ccccc1N1C(=O)c2cc(S(N)(=O)=O)c(Cl)cc2NC1C (stereo unspecified)	inactive
CC(C)CCCC(C)(C)O	inactive
COc1ccc(OC)c(NC(=O)CC(C)=O)c1	inactive
O=C(Nc1ccc2c(O)c(N=Nc3ccc(N=Nc4ccc(S(=O)(=O)O)cc4)cc3)c(S(=O)(=O)O)cc2c1)c1ccccc1	inactive

Continue with the compound presented below.
Please fill in: activation reported for C[C@]12CCC(=O)C=C1CC[C@@H]1[C@@H]2CC[C@@]2(C)[C@H]1CC[C@]2(O)C(=O)CO = inactive
